molecular target: human recombinant HDAC6 (Homo sapiens, UniProt Q9UBN7); experiment: HDAC6 enzyme activity inhibition assay (in vitro, fluorimetric); details: human recombinant HDAC6, fluorimetric kit, same protocol as HDAC1
Sequence (Q9UBN7 whole entry): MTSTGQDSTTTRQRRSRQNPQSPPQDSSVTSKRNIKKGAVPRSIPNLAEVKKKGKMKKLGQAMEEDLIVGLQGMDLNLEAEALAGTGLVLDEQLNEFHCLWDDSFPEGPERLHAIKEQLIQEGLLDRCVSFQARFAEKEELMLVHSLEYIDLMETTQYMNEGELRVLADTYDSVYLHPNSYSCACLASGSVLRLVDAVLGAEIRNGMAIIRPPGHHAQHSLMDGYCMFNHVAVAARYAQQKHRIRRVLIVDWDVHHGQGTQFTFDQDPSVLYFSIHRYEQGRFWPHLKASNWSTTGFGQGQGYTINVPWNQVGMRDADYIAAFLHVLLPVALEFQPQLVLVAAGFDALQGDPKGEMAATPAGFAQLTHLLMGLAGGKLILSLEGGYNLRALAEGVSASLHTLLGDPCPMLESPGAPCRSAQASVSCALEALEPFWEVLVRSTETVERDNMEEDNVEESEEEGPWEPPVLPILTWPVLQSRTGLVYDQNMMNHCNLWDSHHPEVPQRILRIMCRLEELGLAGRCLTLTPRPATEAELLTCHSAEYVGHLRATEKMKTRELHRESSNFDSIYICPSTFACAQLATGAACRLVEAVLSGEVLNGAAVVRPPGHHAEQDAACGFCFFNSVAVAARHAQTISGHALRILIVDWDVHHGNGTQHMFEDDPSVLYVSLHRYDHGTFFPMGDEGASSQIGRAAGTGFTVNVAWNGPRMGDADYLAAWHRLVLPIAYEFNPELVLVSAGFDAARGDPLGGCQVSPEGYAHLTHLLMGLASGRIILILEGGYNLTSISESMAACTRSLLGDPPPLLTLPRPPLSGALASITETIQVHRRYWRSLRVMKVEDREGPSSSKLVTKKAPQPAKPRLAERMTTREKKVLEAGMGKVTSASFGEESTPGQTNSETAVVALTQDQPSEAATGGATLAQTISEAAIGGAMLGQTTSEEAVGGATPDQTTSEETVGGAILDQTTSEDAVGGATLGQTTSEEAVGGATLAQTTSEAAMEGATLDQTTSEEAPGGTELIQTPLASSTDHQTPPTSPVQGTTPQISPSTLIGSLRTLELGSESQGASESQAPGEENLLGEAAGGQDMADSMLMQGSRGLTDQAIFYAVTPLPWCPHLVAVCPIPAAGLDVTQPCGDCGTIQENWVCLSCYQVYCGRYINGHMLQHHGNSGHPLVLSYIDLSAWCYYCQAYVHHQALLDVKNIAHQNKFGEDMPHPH
pIC50: −log10 of the molar value.

[
  {
    "smiles": "C[C@@H]1CN(Cc2ccc(C(=O)NO)c(F)c2)C[C@H](C)N1Cc1ccccc1",
    "pIC50": 7.41
  },
  {
    "smiles": "CCCC(=O)N1[C@H](C)CN(Cc2ccc(C(=O)NO)cc2)C[C@@H]1C",
    "pIC50": 6.66
  },
  {
    "smiles": "C[C@@H]1CN(C(=O)N(C)c2ccccc2)C[C@H](C)N1Cc1ccc(C(=O)NO)cc1",
    "pIC50": 6.83
  },
  {
    "smiles": "C[C@@H]1CN(S(=O)(=O)c2ccc(Cl)cc2)C[C@H](C)N1Cc1ccc(C(=O)NO)cc1",
    "pIC50": 7.12
  },
  {
    "smiles": "C[C@@H]1CN(Cc2ccc(C(=O)NO)cc2)C[C@H](C)N1C(=O)c1cccc(-c2ccoc2)c1",
    "pIC50": 7.13
  },
  {
    "smiles": "C[C@@H]1CN(CCc2ccc(C(=O)NO)cc2)C[C@H](C)N1Cc1ccccc1",
    "pIC50": 6.13
  },
  {
    "smiles": "CC(C)CCN1[C@H](C)CN(Cc2ccc(C(=O)NO)cc2)C[C@@H]1C",
    "pIC50": 5.65
  },
  {
    "smiles": "C[C@@H]1CN(C(=O)c2cccc(Cl)c2)C[C@H](C)N1Cc1ccc(C(=O)NO)cc1",
    "pIC50": 6.99
  },
  {
    "smiles": "C[C@@H]1CN(Cc2ccc(C(=O)NO)cc2)C[C@H](C)N1C(=O)c1cccc(CN2CCOCC2)c1",
    "pIC50": 6.98
  },
  {
    "smiles": "C[C@@H]1CN(C(=O)c2ccccc2-c2ccco2)C[C@H](C)N1Cc1ccc(C(=O)NO)cc1",
    "pIC50": 6.47
  },
  {
    "smiles": "Cc1cccc(NC(=O)N2C[C@@H](C)N(Cc3ccc(C(=O)NO)cc3)[C@@H](C)C2)c1",
    "pIC50": 7.11
  },
  {
    "smiles": "C[C@@H]1CN(Cc2ccc(N(C)C)cc2)C[C@H](C)N1Cc1ccc(C(=O)NO)cc1",
    "pIC50": 6.61
  },
  {
    "smiles": "C[C@@H]1CN(Cc2ccc(C(=O)NO)c(O)c2)C[C@H](C)N1Cc1ccccc1",
    "pIC50": 6.06
  },
  {
    "smiles": "CCN(CC)Cc1cccc(CN2C[C@@H](C)N(Cc3ccc(C(=O)NO)cc3)[C@@H](C)C2)c1",
    "pIC50": 6.19
  },
  {
    "smiles": "C[C@@H]1CN(Cc2ccc(-n3ccnc3)cc2)C[C@H](C)N1Cc1ccc(C(=O)NO)cc1",
    "pIC50": 6.60
  },
  {
    "smiles": "CCN(CC)Cc1cccc(C(=O)N2C[C@@H](C)N(Cc3ccc(/C=C/C(=O)NO)cc3)[C@@H](C)C2)c1",
    "pIC50": 6.53
  }
]

These measurements were taken from patent US10287255B2.
